Target: SHP-2 full-length protein (Homo sapiens)
Construct: purchased BPS Bioscience 79330
Sequence (Q06124 1-593): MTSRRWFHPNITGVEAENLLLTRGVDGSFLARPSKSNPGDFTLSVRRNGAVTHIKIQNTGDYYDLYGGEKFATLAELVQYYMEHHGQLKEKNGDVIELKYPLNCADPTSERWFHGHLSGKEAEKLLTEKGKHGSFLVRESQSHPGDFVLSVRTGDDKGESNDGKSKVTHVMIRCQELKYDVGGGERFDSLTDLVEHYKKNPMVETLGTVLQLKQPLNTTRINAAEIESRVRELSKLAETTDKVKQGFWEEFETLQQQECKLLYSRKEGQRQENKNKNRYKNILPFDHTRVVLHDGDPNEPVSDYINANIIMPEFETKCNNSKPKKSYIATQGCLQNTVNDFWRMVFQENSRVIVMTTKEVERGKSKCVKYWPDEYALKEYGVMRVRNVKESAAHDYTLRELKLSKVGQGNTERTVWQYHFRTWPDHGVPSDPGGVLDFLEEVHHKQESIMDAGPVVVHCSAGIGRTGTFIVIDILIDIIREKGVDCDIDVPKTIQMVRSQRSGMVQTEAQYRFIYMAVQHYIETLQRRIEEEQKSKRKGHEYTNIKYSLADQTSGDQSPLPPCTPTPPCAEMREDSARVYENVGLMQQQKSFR
Test: Inhibition of SHP-2 kinase activity (Homogeneous Full Length SHP-2 Assay Kit)
Assay type: biochemical
Conditions: relative IC50, full-length SHP-2 with activating peptide
Attribute measured: IC50 (nM)

• N[C@@H]1c2ccccc2CC12CCN(c1cnc(Sc3ccnc(C4CC4)c3Cl)cn1)CC2 = 13.2
• Cc1nc(N2CCC3(CC2)Cc2ccccc2[C@H]3N)c(CO)nc1Sc1ccnc(N)c1Cl = 6.81
• Nc1nc(N2CCC3(CC2)Cc2ccccc2[C@H]3N)cnc1Sc1ccnc(N2CCCC2)c1Cl = 0.66
• Cc1nc(N2CCC3(CC2)Cc2ccccc2[C@H]3N)c(CO)nc1Sc1ccnc(N)n1 = 6.7
• Nc1nc(N2CCC3(CC=C(C4CC4)[C@H]3N)CC2)cnc1Sc1ccnc(N)c1Cl = 3.8
• Nc1nc(N2CCC3(CC2)CC2CC2[C@H]3N)cnc1Sc1ccnc(N)c1C1CC1 (some centres unmarked) = 11.7

a: Nc1nc(N2CCC3(CC2)Cc2ncsc2[C@H]3N)c(F)nc1Sc1ccnc(N)c1Cl
b: Nc1nc(N2CCC3(CC2)CCC2(CC2)[C@H]3N)cnc1Sc1ccnc(N)c1Cl
Hi team, can someone confirm which has the larger IC50: a or b ? Thanks. Mark your answer with the label of the selected entry. b

====

Test: Pharmacokinetics assay in MiaPaca 2 tumor-bearing mice (plasma, tumor tissue, intestine)
Type: in vivo
Details: female, mouse, Colon, oral 6 mg/kg
Attribute measured: Cmax (ng/mL)
Please state the figure in ng/mL; there is no need to write the unit.

Which value of Cmax has been reported for Nc1nc(N2CCC3(CC2)Cc2ccccc2[C@H]3N)c(F)nc1Sc1ccnc(N)c1Cl [Example 179] in the records? 1310

====

Test: Pharmacokinetics assay in mice, single intravenous injection
Type: in vivo
Settings: mouse, iv; male Balb/c mice, i.v. 1 mg/kg, plasma
Experimental: Balb/c mice were used as test animals. The solution was subjected to ultrasound to obtain a clear solution. The solution was filtered with a 0.22 μm water filter, and the filtrate was the formulation for intravenous administration (i.v.). The concentration was 0.2 mg/mL. After an overnight fast, male Balb/c mice were administered intravenously with the test compounds at an administration dose of 1 mg/kg and an administration volume of 5 mL/kg. […]
Attribute measured: MRT (h)
Respond numerically; units are h and should not be typed.

Please give the measured MRT for this molecule: `Nc1nc(N2CCC3(CC2)Cc2ccccc2[C@H]3N)c(F)nc1Sc1ccnc(N)c1Cl` 9.04

Cited source: patent US20210355105A1
